Assay: Biodistribution of 14C-CA4P following sub-Tenon's injection
Format: in vivo, New Zealand rabbits
Conditions: vitreous; 100 mg/ml sub-Tenon's
READOUT_LABEL: Cmax (µM)
API: value field is a number in µM; no unit string.

Lab book: Cmax of COc1ccc(/C=C\c2cc(OC)c(OC)c(OC)c2)cc1OP(=O)([O-])[O-].[Na+].[Na+] [CA4P, combretastatin A4 disodium phosphate] noted as 3.9

====

Assay: Biodistribution of 14C-CA4P following topical administration of a solution formulation
Format: in vivo, New Zealand rabbits
Conditions: aqueous humor; 1% topical solution
READOUT_LABEL: Cmax (nM)
API: value field is a number in nM; no unit string.

Lab book: Cmax of COc1ccc(/C=C\c2cc(OC)c(OC)c(OC)c2)cc1OP(=O)([O-])[O-].[Na+].[Na+] [CA4P, combretastatin A4 disodium phosphate] noted as 600

====

Assay: Biodistribution of 14C-CA4P following topical administration of a gel
Type: in vivo, New Zealand rabbits
Settings: aqueous humor; 3% topical gel
Method: ^14C-CA4P (OXiGENE Inc., Watertown, Mass.) was resuspended in 100 ul volume of saline solution and injected with a 30 G needle into the right eyes of anesthesized male New Zealand rabbits (4 months old, 1.8-2.5 kg, n=3 per sample). Three different concentrations of ^14C-CA4P were tested (1, 10, 100 mg/ml) corresponding to doses of 1, 5, and 5 uCi of applied radioactivity respectively. A blank control group was also included. Rabbits were anaesthetized at 1, 6, 24, and 48 hours for blood sampling. […]
READOUT_LABEL: Cmax (µM)
API: value field is a number in µM; no unit string.

Lab book: Cmax of COc1ccc(/C=C\c2cc(OC)c(OC)c(OC)c2)cc1OP(=O)([O-])[O-].[Na+].[Na+] [CA4P, combretastatin A4 disodium phosphate] noted as 8.2

====

Experiment: Biodistribution of 14C-CA4P following sub-Tenon's injection
Assay type: in vivo, New Zealand rabbits
Settings: plasma; 10 mg/ml sub-Tenon's
READOUT_LABEL: Cmax

Lab book: Cmax of COc1ccc(/C=C\c2cc(OC)c(OC)c(OC)c2)cc1OP(=O)([O-])[O-].[Na+].[Na+] [CA4P, combretastatin A4 disodium phosphate] noted as 490 nM

====

Assay: Biodistribution of 14C-CA4P following periocular injection
Type: in vivo, New Zealand rabbits
Conditions: plasma; 100 mg/ml periocular
READOUT_LABEL: Cmax (µM)
API: value field is a number in µM; no unit string.

Lab book: Cmax of COc1ccc(/C=C\c2cc(OC)c(OC)c(OC)c2)cc1OP(=O)([O-])[O-].[Na+].[Na+] [CA4P, combretastatin A4 disodium phosphate] noted as 12.3

====

Assay: Biodistribution of 14C-CA4P following sub-Tenon's injection
Type: in vivo, New Zealand rabbits
Conditions: aqueous humor; 1 mg/ml sub-Tenon's
READOUT_LABEL: Cmax (nM)
API: value field is a number in nM; no unit string.

Lab book: Cmax of COc1ccc(/C=C\c2cc(OC)c(OC)c(OC)c2)cc1OP(=O)([O-])[O-].[Na+].[Na+] [CA4P, combretastatin A4 disodium phosphate] noted as 300

====

Experiment: Biodistribution of 14C-CA4P following topical administration of a solution formulation
Type: in vivo, New Zealand rabbits
Details: cornea; 10% topical solution, 50 ul
READOUT_LABEL: Cmax (µM)
API: value field is a number in µM; no unit string.

Lab book: Cmax of COc1ccc(/C=C\c2cc(OC)c(OC)c(OC)c2)cc1OP(=O)([O-])[O-].[Na+].[Na+] [CA4P, combretastatin A4 disodium phosphate] noted as 104
